Reference source for all entries: PubChem BioAssay (NCI)

Test system: HT29 colon
ASSAY_EXPLANATION: NCI tumour cell line growth inhibition, 48 h; in the data active means GI50 below about 0.43 µM; inactive means the rest
Write down the outcome that applies. Available outcomes: active, inactive

Would you please look over these solved cases?
{"columns": ["COMPOUND", "CLASSIFICATION"],
 "data": [
  ["COc1ccc(/C=C\\c2cc(OC)c(OC)c(OC)c2)c(NS(=O)(=O)c2ccc(Cl)cc2)c1O", "inactive"],
  ["CC(=O)c1cccc(-c2cccc(-c3ccn(CCN4CCOCC4)n3)c2)c1", "inactive"],
  ["CC12CC=CCC1CCC1C2CCC2(C)C(c3ccc(=O)oc3)CCC12O (centres undefined)", "active"]
]}

Write down the call the test reported for this compound. Item: COc1cc(/C=C2\CN(C(=O)CCN3CCC(=NO)CC3)C/C(=C\c3cc(OC)c(OC)c(OC)c3)C2=O)cc(OC)c1OC
active

Write down the call the test reported for this compound. Item: COC(=O)c1ccc2c(c1)C(=O)c1c-2n(CCCN)c(=O)c2cc(OC)c(OC)cc12
inactive

Write down the call the test reported for this compound. Item: COc1cc(/C=C2\CC3C4CC=C5C[C@@H](O)CC[C@]5(C)C4CC[C@]3(C)C2=O)ccc1OCCCn1ccnc1 (some centres undefined)
inactive

Write down the call the test reported for this compound. Item: CC(C)(C)n1cc(-c2ccnc(NCCCNS(=O)(=O)c3ccc(Br)cc3)c2)c(-c2cccc(O)c2)n1
inactive

Write down the call the test reported for this compound. Item: CCCCCCNC(=O)Oc1ccc(/C(=C(/C)Cc2ccc(OC)cc2)c2ccc(OCCN(C)C)cc2)cc1
inactive

Write down the call the test reported for this compound. Item: COC(=O)c1cc(-c2ccc(OC)cc2)[nH]c1N/N=C/c1c(Cl)cccc1Cl
active
